Listing of entries alongside the reported Ratio.
# Tested on: Moraxella catarrhalis
# method_summary: Ratio of linezolid MIC to compound MIC for Moraxella catarrhalis ATCC 8176
# Assay type: functional
Lab note: jot down the number only; don't add units.

As a guide, the following entries are already answered.
# smiles_code, measured_target, parameter_measured, value_measured
rows = [
    ("O=C(NCC(=O)N1CCN(c2ccc(N3C[C@H](Cn4ccnn4)OC3=O)cc2F)CC1)c1ccc([N+](=O)[O-])o1", "Moraxella catarrhalis", "Ratio", 8),
    ("O=C(NCC(=O)N1CCN(c2ccc(N3C[C@H](Cn4ccnn4)OC3=O)cc2F)CC1)c1cc([N+](=O)[O-])cc([N+](=O)[O-])c1", "Moraxella catarrhalis", "Ratio", 16),
    ("Cc1cn(C[C@H]2CN(c3ccc(N4CCN(C(=O)CNC(=O)c5ccc([N+](=O)[O-])o5)CC4)c(F)c3)C(=O)O2)nn1", "Moraxella catarrhalis", "Ratio", 16),
]

Any idea what Ratio came out for Cc1cn(C[C@H]2CN(c3ccc(N4CCN(C(=O)CNC(=O)c5cc([N+](=O)[O-])cc([N+](=O)[O-])c5)CC4)c(F)c3)C(=O)O2)nn1 on Moraxella catarrhalis? 8

---

Listing of entries alongside the reported MIC.
# System: Staphylococcus aureus
# method_summary: Antibacterial activity against methicillin-resistant Staphylococcus aureus after 18 hrs by NCCLS agar dilution method
# Format: functional
Please state the figure in µg/mL; there is no need to write the unit.

# compound, parameter_measured, value_measured
measured = [
    ("O=C(NCC(=O)N1CCN(c2ccc(N3C[C@H](Cn4ccnn4)OC3=O)cc2F)CC1)c1ccccc1", "MIC", 0.5),
    ("Cc1cn(C[C@H]2CN(c3ccc(N4CCN(C(=O)CNC(=O)c5ccccc5)CC4)c(F)c3)C(=O)O2)nn1", "MIC", 0.5),
    ("Cc1cn(C[C@H]2CN(c3ccc(N4CCN(C(=O)CNC(=O)c5cccs5)CC4)c(F)c3)C(=O)O2)nn1", "MIC", 1),
]

What measured MIC goes with Cc1cn(C[C@H]2CN(c3ccc(N4CCN(C(=O)CNC(=O)C5CCCO5)CC4)c(F)c3)C(=O)O2)nn1 (stereo not given in full) ? 16

What measured MIC goes with Cc1cn(C[C@H]2CN(c3ccc(N4CCN(C(=O)CNC(=O)C(Cl)Cl)CC4)c(F)c3)C(=O)O2)nn1 ? 4

---

# Tested on: Haemophilus influenzae
# method_summary: Antibacterial activity against Haemophilus influenzae ATCC 49247 after 18 hrs by NCCLS agar dilution method
# Assay type: functional
# experimental_conditions: ATCC 49247, 18 h
parameter_measured: MIC (mg/L)
Please state the figure in mg/L; there is no need to write the unit.

As a guide, the following entries are already answered.
# smiles_code, units, MIC
records = [
    ("Cc1cn(C[C@H]2CN(c3ccc(N4CCN(C(=O)CNC(=O)c5ccc([N+](=O)[O-])o5)CC4)c(F)c3)C(=O)O2)nn1", "mg/L", 2),
    ("O=C(NCC(=O)N1CCN(c2ccc(N3C[C@H](Cn4ccnn4)OC3=O)cc2F)CC1)c1ccccc1", "mg/L", 32),
    ("Cc1cn(C[C@H]2CN(c3ccc(N4CCN(C(=O)CNC(=O)C(F)(F)F)CC4)c(F)c3)C(=O)O2)nn1", "mg/L", 32),
]

Now turn to the next compound.
What measured MIC goes with Cc1cn(C[C@H]2CN(c3ccc(N4CCN(C(=O)CNS(=O)(=O)c5cccs5)CC4)c(F)c3)C(=O)O2)nn1 ? 64
